- Tested on: HOP-92 NSCLC
- assay-explanation: NCI tumour cell line growth inhibition, 48 h
quantity-name: TGI

[
  {
    "compound": "Nc1ccccc1SC(C[N+](=O)[O-])c1ccc2c(c1)OCO2 (configuration not stated)",
    "result": "30.2 µM"
  },
  {
    "compound": "C=C(CN1CCN(c2ccc(Cl)cc2F)CC1)c1ccc(C(=O)Nc2ccccc2N)cc1",
    "result": "> 27.4 µM"
  },
  {
    "compound": "O=C(Cc1cccs1)N[C@@H]1C(=O)N2C(C(=O)OC(c3ccccc3)c3ccccc3)=C(CO)CS[C@H]12",
    "result": "> 100 µM"
  },
  {
    "compound": "O=C(Nc1ccccc1)NS(=O)(=O)c1ccc(-n2nc3c(c2-c2cccs2)Cc2ccccc2-3)cc1",
    "result": "> 100 µM"
  },
  {
    "compound": "COc1ccc(-c2nc3sccn3c2/C(N)=N/C(=N)N)cc1OC",
    "result": "> 100 µM"
  },
  {
    "compound": "O=[N+]([O-])/C(C(Cl)=C(Cl)Cl)=C(\\SCc1ccccc1)N1CCCCC1",
    "result": "0.529 µM"
  },
  {
    "compound": "CCC12C=CCN3CCC4(C(=C(C(=O)OC)[C@@H]1O)Nc1ccccc14)C32 (some centres not stated)",
    "result": "4.16 µM"
  },
  {
    "compound": "COC(=O)C1CCC(=O)N1C(c1ccccc1)c1ccc(OC)c(OC)c1 (configuration not stated)",
    "result": "> 100 µM"
  },
  {
    "compound": "CCCCC(=O)OCC(=O)[C@]1(O)Cc2c(O)c3c(c(O)c2[C@@H](OC2CC(NC(=O)C(F)(F)F)C(O)C(C)O2)C1)C(=O)c1c(OC)cccc1C3=O (some centres not stated)",
    "result": "3.88 µM"
  },
  {
    "compound": "C=C1C(=O)C23CC1CCC2C12CO[C@@H]4OCC(C)(CC[C@@H]1OC3=O)C42 (some centres not stated)",
    "result": "5.78 µM"
  },
  {
    "compound": "C=C(Br)C(C)(Cl)CCC(Br)C(C)(C)Cl (configuration not stated)",
    "result": "95.6 µM"
  },
  {
    "compound": "CCc1ccc(CCN2CCCCC2)nc1",
    "result": "> 100 µM"
  }
]
